Assay: AUC (0 to t) in Sprague-Dawley rat at 25 mg/kg, ip up to 24 hrs post dose by LC/MS/MS analysis
Type: ADME, organism-based
Parameters: dose 25 mg/kg, time < 24 hr, route intraperitoneal
Conditions: in vivo
Property Measured: AUC(0-t) at 24 h (ng·h/mL)

smi=Cc1cc(NC(=O)Nc2ccc(-c3ccnc4[nH]nc(C)c34)cc2)ccc1N1CCOCC1 property_measured="AUC(0-t) at 24 h" result_value=691

###

Assay: Volume of distribution at steady state in Sprague-Dawley rat at 2 mg/kg, iv up to 24 hrs post dose by LC/MS/MS analysis
Format: ADME, organism-based
Details: in vivo, read-out: Vdss
Property Measured: Vd (L/kg)

smi=Cc1cc(NC(=O)Nc2ccc(-c3ccnc4[nH]nc(C)c34)cc2)ccc1N1CCOCC1 property_measured=Vd result_value=0.97

###

Heads up, these molecules all have log10 GI50 values measured for Mast/stem cell growth factor receptor Kit (Homo sapiens), P10721 [T670I].
Property Measured: log10 GI50 (log10 of the value in µM)

molecule=CCCCCCNC(=O)Nc1ccc(-c2ccnc3[nH]nc(C)c23)cc1 result_value=0.25
molecule=Cc1n[nH]c2nccc(-c3ccc(NC(=O)Nc4cnc5ccccc5c4)cc3)c12 result_value=-0.66
molecule=Cc1cccc(NC(=O)Nc2ccc(-c3ccnc4[nH]nc(CO)c34)cc2)c1 result_value=0.26
molecule="Cc1ccc(F)c(NC(=O)Nc2ccc(-c3cccc4[nH]nc(N)c34)cc2)c1 [LINIFANIB]" result_value=-1.43
molecule=Cc1n[nH]c2nccc(-c3ccc(NC(=O)NCCCc4ccccc4)cc3)c12 result_value=0.22
molecule=Cc1cc(NC(=O)Nc2ccc(-c3ccnc4[nH]nc(C)c34)cc2)ccc1N1CCOCC1 result_value=-1.41
molecule=Cc1cccc(NC(=O)Nc2ccc(-c3ccnc4[nH]nc(C)c34)cc2)c1 result_value=-0.50

###

Experiment: MRT (0 to t) in Sprague-Dawley rat at 100 mg/kg, ip up to 24 hrs post dose by LC/MS/MS analysis
Assay type: ADME, organism-based
Conditions: in vivo
Property Measured: MRT last at 24 h

smi=Cc1cc(NC(=O)Nc2ccc(-c3ccnc4[nH]nc(C)c34)cc2)ccc1N1CCOCC1 property_measured="MRT last at 24 h" result_value="7.99 h"

###

Assay: Half life in Sprague-Dawley rat at 100 mg/kg, ip up to 24 hrs post dose by LC/MS/MS analysis
Format: ADME, organism-based
Conditions: in vivo
Property Measured: half-life (h)

smi=Cc1cc(NC(=O)Nc2ccc(-c3ccnc4[nH]nc(C)c34)cc2)ccc1N1CCOCC1 result_value=11

###

Target: UniProt:P35916
Sequence (P35916 whole entry): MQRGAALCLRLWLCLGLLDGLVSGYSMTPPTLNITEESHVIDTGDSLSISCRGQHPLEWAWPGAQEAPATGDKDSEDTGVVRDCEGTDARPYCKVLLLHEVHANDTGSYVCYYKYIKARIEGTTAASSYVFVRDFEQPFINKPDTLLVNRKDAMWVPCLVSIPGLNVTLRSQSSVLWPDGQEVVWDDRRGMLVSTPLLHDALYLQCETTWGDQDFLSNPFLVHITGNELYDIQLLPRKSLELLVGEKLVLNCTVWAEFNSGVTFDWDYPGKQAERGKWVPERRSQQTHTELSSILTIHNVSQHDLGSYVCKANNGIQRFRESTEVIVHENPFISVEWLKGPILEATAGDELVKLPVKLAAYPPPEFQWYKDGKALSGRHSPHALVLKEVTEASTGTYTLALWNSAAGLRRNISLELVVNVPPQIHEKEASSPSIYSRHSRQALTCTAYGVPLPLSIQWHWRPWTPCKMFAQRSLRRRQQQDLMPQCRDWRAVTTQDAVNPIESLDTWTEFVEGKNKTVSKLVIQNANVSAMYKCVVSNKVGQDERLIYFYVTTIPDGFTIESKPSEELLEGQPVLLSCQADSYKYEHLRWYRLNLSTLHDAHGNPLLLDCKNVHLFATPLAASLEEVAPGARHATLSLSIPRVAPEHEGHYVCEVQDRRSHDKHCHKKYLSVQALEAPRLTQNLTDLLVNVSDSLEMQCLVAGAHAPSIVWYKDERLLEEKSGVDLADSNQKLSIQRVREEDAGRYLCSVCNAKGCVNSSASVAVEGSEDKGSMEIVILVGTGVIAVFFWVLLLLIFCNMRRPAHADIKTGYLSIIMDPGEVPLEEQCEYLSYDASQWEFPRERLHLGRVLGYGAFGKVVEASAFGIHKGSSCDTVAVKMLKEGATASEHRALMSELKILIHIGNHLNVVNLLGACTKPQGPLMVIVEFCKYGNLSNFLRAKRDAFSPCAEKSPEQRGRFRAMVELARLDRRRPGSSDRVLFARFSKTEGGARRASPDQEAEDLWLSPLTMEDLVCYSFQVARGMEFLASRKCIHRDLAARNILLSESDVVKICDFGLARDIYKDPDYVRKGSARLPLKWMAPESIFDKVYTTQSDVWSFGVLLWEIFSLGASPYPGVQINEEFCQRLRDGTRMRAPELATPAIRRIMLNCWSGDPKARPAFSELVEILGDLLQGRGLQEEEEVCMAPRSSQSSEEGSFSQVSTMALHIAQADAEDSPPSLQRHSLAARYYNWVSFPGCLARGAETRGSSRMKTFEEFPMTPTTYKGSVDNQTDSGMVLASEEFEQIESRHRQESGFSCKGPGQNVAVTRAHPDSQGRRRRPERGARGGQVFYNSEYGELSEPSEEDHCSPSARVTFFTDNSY
Assay: Inhibition of VEGFR3 (unknown origin) using FAM-labeled peptide as substrate preincubated for 10 mins followed by substrate addition in presence of ATP by mobility shift assay
pIC50: −log10 of the molar value.
Property Measured: pIC50

smi=Cc1cccc(NC(=O)Nc2ccc(-c3ccnc4[nH]nc(C)c34)cc2)c1 property_measured=pIC50 result_value=6.42

###

Molecular target: Platelet-derived growth factor receptor beta (Homo sapiens, UniProt P09619)
Sequence (P09619 whole entry, the tested form may be a part): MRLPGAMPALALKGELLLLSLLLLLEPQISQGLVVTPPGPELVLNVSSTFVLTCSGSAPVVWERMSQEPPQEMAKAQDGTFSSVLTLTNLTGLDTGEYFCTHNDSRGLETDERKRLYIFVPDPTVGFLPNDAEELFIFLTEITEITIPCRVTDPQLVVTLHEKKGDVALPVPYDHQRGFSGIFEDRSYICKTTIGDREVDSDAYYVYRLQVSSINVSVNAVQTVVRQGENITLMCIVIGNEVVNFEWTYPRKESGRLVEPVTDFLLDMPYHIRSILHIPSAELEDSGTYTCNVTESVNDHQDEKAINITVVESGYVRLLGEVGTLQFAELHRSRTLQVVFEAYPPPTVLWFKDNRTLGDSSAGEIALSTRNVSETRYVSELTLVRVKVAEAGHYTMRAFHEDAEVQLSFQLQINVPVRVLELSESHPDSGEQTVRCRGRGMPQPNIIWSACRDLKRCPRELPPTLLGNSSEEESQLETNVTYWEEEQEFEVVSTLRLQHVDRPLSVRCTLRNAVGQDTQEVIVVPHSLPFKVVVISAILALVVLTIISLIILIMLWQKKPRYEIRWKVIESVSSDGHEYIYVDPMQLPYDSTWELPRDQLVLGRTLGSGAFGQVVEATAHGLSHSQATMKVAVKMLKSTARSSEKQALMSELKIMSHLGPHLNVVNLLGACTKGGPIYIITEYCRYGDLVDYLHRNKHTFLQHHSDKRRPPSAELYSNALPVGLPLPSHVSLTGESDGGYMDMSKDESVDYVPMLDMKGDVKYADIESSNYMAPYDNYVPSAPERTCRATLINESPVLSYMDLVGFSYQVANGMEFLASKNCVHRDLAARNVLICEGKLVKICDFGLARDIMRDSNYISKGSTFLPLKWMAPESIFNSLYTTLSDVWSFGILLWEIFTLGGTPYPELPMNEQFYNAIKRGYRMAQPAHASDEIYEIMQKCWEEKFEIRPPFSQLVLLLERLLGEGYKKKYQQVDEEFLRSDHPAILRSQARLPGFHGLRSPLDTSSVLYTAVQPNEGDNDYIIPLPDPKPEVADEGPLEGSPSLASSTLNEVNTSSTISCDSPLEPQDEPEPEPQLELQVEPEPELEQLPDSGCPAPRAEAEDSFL
Assay: Inhibition of human His-tagged PDGFRbeta (558 to 1106 residues) expressed in baculovirus by ELISA
pIC50: −log10 of the molar value.
Property Measured: pIC50

smi=Cc1cc(NC(=O)Nc2ccc(-c3ccnc4[nH]nc(C)c34)cc2)ccc1N1CCOCC1 target_under_test="Platelet-derived growth factor receptor beta (Homo sapiens, UniProt P09619)" property_measured=pIC50 result_value="> 9.00"
